For each record, write down the corresponding GI50.
Test system: HOP-62
assay protocol: NCI tumour cell line growth inhibition, 48 h
Active and inactive are the calls of the source. No stated cut-off is given here; in the data, active = GI50 up to about 1.1 µM and inactive = higher.

Prompt line: So what's the measured GI50 for this one? CC(=O)OC1CC2(C)OC(Cc3ccccc32)O1 (stereo unspecified)
Response line: > 100 µM (inactive)

Prompt line: Now the same for `CCOC(=O)c1sc2c(c1OC(=O)c1ccccc1)c(=O)n(-c1ccccc1)c(=S)n2-c1ccccc1`
Response line: 22.9 µM (inactive)

Prompt line: Now the same for Fc1cc2nc3n(c2cc1F)C(c1c(Cl)cccc1Cl)SC3 (stereo unspecified)
Response line: 16 µM (inactive)

Prompt line: Try this compound too: COc1ccc(N2C(=O)C3CC(c4ccc(C)cc4)c4c([nH]c5ccccc45)C3C2=O)cc1 (stereo unspecified)
Response line: 18.1 µM (inactive)

Prompt line: Input `COCc1nc2c(OC)c(-c3nc4ccc(N5CCN(C)CC5)cc4[nH]3)cc(OC)c2[nH]1`
Response line: 32.4 µM (inactive)

Prompt line: What do we get for `CC(=O)CC(=O)c1cc2c(=O)oc(C)cc2oc1=O` ?
Response line: > 37.5 µM (inactive)

###

Tested on: SF-539
assay protocol: NCI tumour cell line growth inhibition, 48 h
Calls of active or inactive are those of the source. No stated cut-off is given here; in the data, active = GI50 up to about 1.1 µM and inactive = higher.
property name: GI50

Prompt line: Notebook: pull reported GI50 for SF-539, entry `CCOC(=O)c1c(C)n(-c2ccc(C)cc2)c(=O)c2ccccc2c(=O)c2c(=O)ccc(=O)c1=2`
Response line: 21.9 µM (inactive)

Prompt line: Subsequent entry: `CCOC(=O)C(C(=O)OCC)S(C)(=O)=O`
Response line: > 100 µM (inactive)

Prompt line: Check `O=C1NC(=S)NC(=O)C1=Cc1cccc2cc3ccccc3cc12` too.
Response line: 1.58 µM (inactive)

Prompt line: // query: CC1=N[C@](C)(C2CC3C=CC2C3=O)COC1=O (some centres undefined)
Response line: > 100 µM (inactive)

Prompt line: Same read-out for CC(=O)Nc1ccc2c3c(cc(O)c2c1)N(C(=O)CCCCC(=O)Nc1ccc2c4c(cc(O)c2c1)N(C(=O)OC(C)(C)C)CC4CCl)CC3CCl (centres undefined) ?
Response line: 2.25 µM (inactive)

Prompt line: And then `O=C(Nc1cc(Cl)ccc1Cl)c1cc2cccc(Cl)c2oc1=O` , what is it?
Response line: > 100 µM (inactive)

Prompt line: Param item: `N#CCCN(CCC#N)c1ccc(/C=C2\N=C(c3ccccc3)N(NC(=O)c3ccncc3)C2=O)cc1`
Response line: > 100 µM (inactive)

Prompt line: `Cc1ccc(Nc2c(C#N)[n+]([O-])c3cc(Cl)ccc3[n+]2[O-])cc1` ?
Response line: 26.6 µM (inactive)

Prompt line: Try this compound too: `C=CCNC(=S)NNC(=O)c1c(C)nc2sccn12`
Response line: > 100 µM (inactive)

Prompt line: Can you handle CN1CC2=C(OC(N)=C(C#N)C2c2cccs2)/C(=C/c2cccs2)C1 (centres undefined) next?
Response line: 48.8 µM (inactive)

Prompt line: Also COC(=O)[C@@]12OC[C@]34C([C@@H](O)C1O)[C@@]1(C)CC(=O)C(OC(=O)CC(C)C(F)(F)F)=C(C)C1C[C@H]3OC(=O)[C@H](O)[C@H]42 (some centres undefined) , if possible.
Response line: 1.51 µM (inactive)

Prompt line: # repeat for O=C1[C@H](O)[C@@H]2C(O)O[C@H]3[C@@H]2N1C[C@H]3[Si](c1ccccc1)(c1ccccc1)c1ccccc1 (some centres undefined)
Response line: > 100 µM (inactive)

Prompt line: # repeat for Cc1ccccc1N(CCC#N)C1=NN(C(=O)CC(=O)Nc2ccccc2)C(c2ccccc2)C1 (centres undefined)
Response line: > 100 µM (inactive)

Prompt line: Also check `COC(=O)CCCc1ccc2c(c1)CC1(C2)Cc2cc3c(cc2C1)CCCC3`
Response line: 37.8 µM (inactive)

Prompt line: # iterate: `O=C(c1ccco1)n1c2ccc(Br)cc2c2nc3ccccc3nc21`
Response line: > 100 µM (inactive)

Prompt line: Same lookup for `CCOC(=O)c1c(N=C(S)Nc2ccccc2)sc2c1CCN(C)C2` , please.
Response line: > 100 µM (inactive)

Prompt line: Subsequent entry: `CC12CC(Br)(Br)C(=O)C3C1CCCC32`
Response line: 11.9 µM (inactive)

Prompt line: Param item: COc1cc(/C=C2\C(=O)N(c3cccc(NC(C)=O)c3)C(c3ccccc3)S2(=O)=O)cc(OC)c1OC (centres undefined)
Response line: 48.3 µM (inactive)

Prompt line: Entry to check: `Cn1cc(NC(=O)[C@H]2CCC(N)=N2)cc1C(=O)NCCC(=N)N`
Response line: > 100 µM (inactive)

Prompt line: Now try CC(=O)NC1C(OC(C)C(=O)NC(C)C(=O)NC(CCC(=O)NCCCCCNc2ccc([N+](=O)[O-])c3[nH]c4ccccc4c(=O)c23)C(N)=O)C(O)C(CO)OC1(C)OCc1ccccc1 (centres undefined) .
Response line: 64.1 µM (inactive)

Prompt line: Entry to check: `Nc1ccc2ccc(-c3ccc[nH]3)nc2n1`
Response line: > 100 µM (inactive)

Prompt line: Please give the result for `CC1(C)CC(=O)C(=CNC(=S)c2ccccc2)C(=O)C1` too.
Response line: > 100 µM (inactive)

Prompt line: And then `Cc1cccc(C(C)C)c1NC(=O)/C(Cc1c([N+](=O)[O-])cccc1[N+](=O)[O-])=N/NC(=O)CC#N` , what is it?
Response line: > 100 µM (inactive)

Prompt line: One more compound: `CC(=O)NC1=C(N)C(=O)c2ccccc2C1=O`
Response line: > 100 µM (inactive)

Prompt line: Please do the same for `Cc1c(C(=N)N)oc2ccccc12` as well.
Response line: > 100 µM (inactive)

Prompt line: Try the compound CCCCCCCCCCCCCCCC(=O)Nc1ccn(C2OC(CO)C(O)C2O)c(=O)n1 (centres undefined)
Response line: 57.7 µM (inactive)

Prompt line: Follow-up item: CCN(CC)c1ccc(C2NC(=O)c3ccccc3N2)cc1 (centres undefined)
Response line: 2.71 µM (inactive)

Prompt line: Consider next the compound `O=C1C=CC2(C=C1)O[C@H](COCc1ccccc1)[C@@H](COCc1ccccc1)O2` in the same way.
Response line: 1.97 µM (inactive)

Prompt line: Now consider NNC(=O)N/N=C1\C(=O)N(c2ccc(Cl)c(Cl)c2)C(=O)C(=O)C1c1nc2ccccc2s1 (centres undefined) .
Response line: > 100 µM (inactive)

Prompt line: Please do the same for `Cn1ccnc1Sc1ccc(/C=N/NC(=O)c2ccccc2[N+](=O)[O-])cc1[N+](=O)[O-]` as well.
Response line: > 100 µM (inactive)

Prompt line: Same lookup for `CN(C)CCNC(=O)c1ccc(Cl)c2c(Nc3ccc(S(N)(=O)=O)cc3)c3ccccc3nc12` , please.
Response line: 1.21 µM (inactive)

Prompt line: For `Oc1ccc(Cl)cc1Sc1cc(Cl)ccc1O` then?
Response line: 17.7 µM (inactive)

Prompt line: Can you handle Cc1ccc(NC(=O)C(Cc2c[nH]c3ccccc23)NC(=O)Oc2ccccc2)cc1C (centres undefined) next?
Response line: > 100 µM (inactive)

Prompt line: // next record `CCOC(=O)c1nc2cc(C(F)(F)F)ccc2nc1Nc1ccc(OC)cc1`
Response line: > 100 µM (inactive)

Prompt line: Same for `N=c1c2ccccc2nc2oc3ccc(Cl)cc3n12`
Response line: 15.5 µM (inactive)

Prompt line: Same read-out for `O=C(c1cccs1)N(C(=O)N1CCN(c2ccccc2)CC1)S(=O)(=O)c1ccccc1` ?
Response line: 17.9 µM (inactive)

Prompt line: Another compound to check: Cc1cc(Cl)ccc1NC(=O)C1C(=O)N(c2ccc(Cl)cc2C)C(=O)/C1=N\NC(N)=S (centres undefined)
Response line: 26.1 µM (inactive)

Prompt line: Please do the same for `O=C1C=C(c2[nH]c3ccccc3c2C2=CC(=O)c3ccccc3C2=O)C(=O)c2ccccc21` as well.
Response line: 34.8 µM (inactive)

Prompt line: Note, next up: CC12CCC([C@H](N3CCOCC3)/C1=N\OCCN1CCCC1)C2(C)C (some centres undefined)
Response line: > 100 µM (inactive)

###

Consider the following molecules; for each one, report its GI50.
Tested on: SK-MEL-5
assay protocol: NCI tumour cell line growth inhibition, 48 h
Activity calls are given as the source filed them. No stated cut-off is given here; in the data, active = GI50 up to about 1.1 µM and inactive = higher.

Prompt line: Which value of GI50 has been reported for `O=[N+]([O-])c1ccccc1S(=O)(=O)c1cc(O)cc2c1NCCC2` in the records?
Response line: 13.9 µM (inactive)

Prompt line: Entry N#C/C(=C1\OC(=N)C(c2ccc(Cl)cc2Cl)C1=O)c1ccc(Cl)cc1Cl (stereo not given) please
Response line: > 100 µM (inactive)

Prompt line: Try the molecule Fc1cc2nc3n(c2cc1F)C(c1c(Cl)cccc1Cl)SC3 (stereo not given)
Response line: 7.82 µM (inactive)

Prompt line: Now give it for CCCCOC(=O)C1C(c2ccc(Cl)cc2)NC(c2ccc(Cl)cc2)C(C(=O)OCCCC)S1(=O)=O (stereo not given) too.
Response line: > 100 µM (inactive)

Prompt line: Another molecule to check: Cc1ccccc1N(CCC#N)C1=NN(C(=O)CC(=O)Nc2ccccc2)C(c2ccccc2)C1 (stereo not given)
Response line: > 100 µM (inactive)

Prompt line: Try this molecule next: CC(=O)Nc1ccc2c3c(cc(O)c2c1)N(C(=O)CCCCC(=O)Nc1ccc2c4c(cc(O)c2c1)N(C(=O)OC(C)(C)C)CC4CCl)CC3CCl (stereo not given)
Response line: 1.54 µM (inactive)

Prompt line: # repeat for C/C=C/C#CC#C/C=C/C=C/C(O)CCO (stereo not given)
Response line: > 23.1 µM (inactive)

Prompt line: What about `Nc1ncc(Sc2ccccc2C(=O)O)s1` ?
Response line: > 100 µM (inactive)

Prompt line: How about `Cc1cc2cc3c(C)cc(=O)oc3c(C)c2o1` ?
Response line: > 100 µM (inactive)

Prompt line: Try the molecule `Fc1ccc2c(c1)SC1=Nc3sc4cc(F)ccc4[n+]3CN12`
Response line: 11.1 µM (inactive)
